Below is a list of entries, each paired with its recorded TGI value.
System: RXF 393 renal
Assay: NCI tumour cell line growth inhibition, 48 h
Just the number in µM, nothing appended.

Below are worked cases with known answers.
[
  {
    "COMPOUND": "COc1ccccc1OCC(COC(=O)Nc1ccc(C)cc1)OC(=O)Nc1ccc(C)cc1 (stereo not given)",
    "SUBJECT OF TEST": "RXF 393 renal",
    "TGI (µM)": 20.2
  },
  {
    "COMPOUND": "O=[N+]([O-])C(=C(c1ccccc1)c1ccccc1)[N+](=O)[O-]",
    "SUBJECT OF TEST": "RXF 393 renal",
    "TGI (µM)": 6.71
  },
  {
    "COMPOUND": "CN(NC(=O)/C(=C/C=C/c1ccccc1)NC(=O)c1ccccc1)C1=C(Cl)C(=O)[N+](c2ccccc2)=CC1",
    "SUBJECT OF TEST": "RXF 393 renal",
    "TGI (µM)": 53.8
  },
  {
    "COMPOUND": "Oc1cc(Br)cc2cc(Br)cnc12",
    "SUBJECT OF TEST": "RXF 393 renal",
    "TGI (µM)": 10.9
  },
  {
    "COMPOUND": "CN1C=CN(Cc2ccc(-c3ccccn3)nc2)[CH-]1.CN1C=CN(Cc2ccc(-c3ccccn3)nc2)[CH-]1.[Au+3]",
    "SUBJECT OF TEST": "RXF 393 renal",
    "TGI (µM)": 17.8
  }
]

Now for a further compound.
Exercise: Could you tell me which TGI is on file for CC[N+]1(C)CCC(O)(/C=C/c2ccc(Cl)c(Cl)c2)C(C(=O)/C=C/c2ccc(Cl)c(Cl)c2)C1 (stereo not given) ?
Solution: 4.02

* * *

Test system: NCI-H460 lung
Test: NCI tumour cell line growth inhibition, 48 h
Some compounds, each annotated with its measured TGI.

Some solved entries appear below for comparison.
[
  {
    "COMPOUND": "C1CCN2CC34CC(CC5CCCN(C6CCCC3N6)C54)C2C1 (stereo not drawn)",
    "TGI": "> 100 µM"
  },
  {
    "COMPOUND": "O.O=[Se](=O)(O)O.[NH-]C1CCCCC1[NH-].[Pt+2] (stereo not drawn)",
    "TGI": "38.7 µM"
  },
  {
    "COMPOUND": "Cc1cc2nnn(C3CCCO3)c2cc1C (stereo not drawn)",
    "TGI": "> 100 µM"
  }
]

Exercise: Entry COc1ccc(/C(Cl)=C(\C=O)c2ccc(Cl)cc2)cc1 , system NCI-H460 lung: what TGI was measured?
Solution: > 100 µM

Exercise: // fetch NCI-H460 lung TGI for O=C(O)CNS(=O)(=O)c1ccc(NC(=O)c2cccc([N+](=O)[O-])c2)cc1
Solution: > 100 µM

Exercise: Write down the reported TGI of CCOc1cc(C=Nc2ccc(Oc3ccc(Cl)cc3)c(Cl)c2)ccc1O , test system: NCI-H460 lung.
Solution: 43.2 µM

Exercise: Could you share what TGI was measured for O=C(NNc1ccc([N+](=O)[O-])cc1)C1OC(CO)C(O)C1O (stereo not drawn) , tested on NCI-H460 lung?
Solution: > 100 µM

Exercise: # get_value(readout= TGI, system= NCI-H460 lung) for C=C1C(=O)C23C(CC(OC(C)=O)C1[C@@H]2OC(C)=O)C1(C)C(OC(C)=O)CCC(C)(C)C1C[C@@H]3OC(C)=O (stereo partly drawn)
Solution: 3.37 µM
